These entries and their values trace back to PubChem BioAssay AID1645861.

Target: Ubiquitin carboxyl-terminal hydrolase 7 (Homo sapiens)
Test: Ubiquitin-specific protease 7 DUB inhibitors, concentration-effect, biochemical, validation of primary hits (AID 1645861)
Details: purified USP7, Ub-rhodamine cleavage fluorescence, 60 min
Calls of active or inactive are those of the source.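 Rule for the calls: active = compounds whose peak USP7 inhibition across the dose series reached 30% or more; inactive = the rest.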
Parameter call: string, one of active, inactive

[[record]]
compound = "COc1ccc(C2/C(=C(\\O)c3ccccc3)C(=O)C(=O)N2c2nc3ccc(F)cc3s2)cc1 (configuration not stated)"
discrete_label = "active"

[[record]]
compound = "O=C(c1cnc2[nH][nH]c(=O)c2c1)c1cc(Cl)cc(Cl)c1O"
discrete_label = "active"

[[record]]
compound = "Cc1nn(-c2ccccc2)c2c1C1(C(=O)Nc3ccccc31)N1C(=N2)Sc2ccccc21 (configuration not stated)"
discrete_label = "active"

[[record]]
compound = "O=C(CC1C(=O)Nc2nc3ccccc3n21)Nc1cccc2ccccc12 (configuration not stated)"
discrete_label = "inactive"

[[record]]
compound = "CC(=O)NS(=O)(=O)c1ccc(NC(=O)/C=C/c2cn(-c3ccccc3)nc2-c2ccccc2)cc1"
discrete_label = "active"


What call does the record list for `CC(C)c1ccc(NC(=O)COC(=O)c2ccc(NS(=O)(=O)c3ccc4c(c3)OCCO4)cc2)cc1` ?
inactive

Assay result, entry `COc1cc(NC(=O)Cc2ccccc2)ccc1NC(=O)c1cc2ccccc2o1` — outcome?
inactive

Entry `C[C@@H]1OC2=C(C(=O)c3cccc(O)c3C2=O)[C@H](O)[C@@H]1O` : call = ?
inactive

I would be grateful if you could indicate the recorded call for `O=C(CCCCCn1c(=O)c2sccc2n(CC(=O)c2ccc(Cl)c(Cl)c2)c1=O)NCc1ccc2c(c1)OCO2` .
inactive

Per the records of this test, what outcome belongs to `O=C(Nc1cccc(Cl)c1)c1ncn2c1CNS(=O)(=O)c1ccccc1-2` ?
inactive

State the result this test recorded for `O=C(CCCc1nnc2c(=O)n(-c3cccc(F)c3)ccn12)NCc1ccc(F)cc1` .
inactive

Recorded test call requested for `COc1cn(-c2ccc(F)cc2)nc1C(=O)Nc1ccc(Cl)cc1Cl`
inactive

Hello, I am checking results. What call was entered for `O=C(NCc1ccc2c(c1)OCO2)c1cc2c(s1)CCC2` ?
inactive

====

Target: UniProt:Q93009
Experiment: Ubiquitin-specific protease 7 DUB inhibitors, concentration-effect, biochemical, validation of primary hits (AID 1645861)
Conditions: purified USP7, Ub-rhodamine cleavage fluorescence, 60 min
The source made the active and inactive calls.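 How the source made its calls: active means compounds whose peak USP7 inhibition across the dose series reached 30% or more; inactive means the rest.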
Lab note: assign the record to one of active, inactive

Solved cases below.
[[record]]
smiles_record = "COc1ccc(Cl)cc1NC(=O)Cn1c(=O)n(CCCCC(=O)NCCc2ccccc2)c(=O)c2ccccc21"
discrete_label = "inactive"

[[record]]
smiles_record = "Cn1c2ccccc2c(=O)c2c(=O)n(-c3cccc(Cl)c3)c(-c3cccs3)nc21"
discrete_label = "active"

[[record]]
smiles_record = "NS(=O)(=O)c1cccc(NC(=O)/C=C/c2cn(-c3ccccc3)nc2-c2cccc([N+](=O)[O-])c2)c1"
discrete_label = "inactive"


Assay outcome for `COc1ccc(NS(=O)(=O)c2cc(NC(=O)CC(=O)c3ccc([N+](=O)[O-])cc3)ccc2Cl)cc1` : what was it?
inactive

====

Molecular target: Ubiquitin carboxyl-terminal hydrolase 7 (Homo sapiens) (UniProt Q93009)
Sequence (Q93009 whole entry, looked up): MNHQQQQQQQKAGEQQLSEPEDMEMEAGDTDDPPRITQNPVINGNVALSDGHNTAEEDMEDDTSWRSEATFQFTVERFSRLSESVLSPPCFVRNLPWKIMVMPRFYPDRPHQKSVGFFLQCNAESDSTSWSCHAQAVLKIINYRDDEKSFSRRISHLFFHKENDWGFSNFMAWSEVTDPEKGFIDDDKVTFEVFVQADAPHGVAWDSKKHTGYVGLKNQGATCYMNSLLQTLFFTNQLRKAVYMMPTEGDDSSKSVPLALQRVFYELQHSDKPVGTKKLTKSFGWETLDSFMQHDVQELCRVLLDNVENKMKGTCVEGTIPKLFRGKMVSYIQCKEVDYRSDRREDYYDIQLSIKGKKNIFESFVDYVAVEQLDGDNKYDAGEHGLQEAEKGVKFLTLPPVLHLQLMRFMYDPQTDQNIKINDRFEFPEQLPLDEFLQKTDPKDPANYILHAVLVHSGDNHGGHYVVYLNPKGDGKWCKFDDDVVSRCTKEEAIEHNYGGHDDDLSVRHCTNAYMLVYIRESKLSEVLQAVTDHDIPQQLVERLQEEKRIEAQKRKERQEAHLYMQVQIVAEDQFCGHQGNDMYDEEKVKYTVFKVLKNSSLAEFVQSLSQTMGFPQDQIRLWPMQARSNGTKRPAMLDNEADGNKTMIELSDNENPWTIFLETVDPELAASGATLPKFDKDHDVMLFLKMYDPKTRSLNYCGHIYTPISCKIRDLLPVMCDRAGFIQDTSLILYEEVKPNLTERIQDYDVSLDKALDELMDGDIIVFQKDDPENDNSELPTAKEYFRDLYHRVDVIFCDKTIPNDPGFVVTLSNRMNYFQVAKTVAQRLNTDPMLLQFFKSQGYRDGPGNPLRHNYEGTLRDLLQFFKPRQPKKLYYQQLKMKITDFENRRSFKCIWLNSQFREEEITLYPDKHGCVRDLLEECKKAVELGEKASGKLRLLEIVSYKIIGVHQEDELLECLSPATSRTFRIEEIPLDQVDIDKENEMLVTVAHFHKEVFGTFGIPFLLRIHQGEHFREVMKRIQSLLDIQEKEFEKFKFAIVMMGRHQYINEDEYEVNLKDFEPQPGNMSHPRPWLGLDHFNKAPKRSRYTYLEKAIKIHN
Assay: Ubiquitin-specific protease 7 DUB inhibitors, concentration-effect, biochemical, validation of primary hits (AID 1645861)
Conditions: purified USP7, Ub-rhodamine cleavage fluorescence, 60 min
Calls of active or inactive are those of the source.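 The calls were made as follows: active = compounds whose peak USP7 inhibition across the dose series reached 30% or more; inactive = the rest.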
# output must be one of active, inactive

Tell me the assay call for `Cc1cc(OCC(=O)Nc2ccccc2C(=O)Nc2ccccc2)ccc1Cl` please.
inactive

Can you look up the reported call for `O=C(Cn1c(=O)n(Cc2ccccc2)c(=O)c2ncccc21)NCc1ccccc1Cl` for me?
active

Short answer needed: outcome of this test for `Cn1nc(Cl)c(Cl)c1Oc1ccc(S(=O)(=O)Nc2ccc(Oc3ccc(C(F)(F)F)cn3)c(Cl)c2)cc1` ?
active

Hi team, can someone confirm the assay call for `Cc1ccc(NC(=O)Nc2ccc(C)n(CC(=O)Nc3ccc(C)cc3C)c2=O)cc1` ?
active
